assayExplanation: Tmax in Swiss albino mouse plasma at 30 mg/kg, po
Type: ADME, organism-based
Set-up: dose 30 mg/kg, route oral
observationType: Tmax (h)
Give just the number in h; leave the unit off.

In: Which Tmax reading was recorded for the compound `Cc1nc(N2CCC(N3CCOCC3)CC2)nc2ccc(NC(=O)COc3ccc(OC(F)(F)F)cc3)cc12` ?
Out: 1

====

assayExplanation: Half life in Swiss albino mouse plasma at 30 mg/kg, po
Type: ADME, organism-based
Set-up: dose 30 mg/kg, route oral
observationType: half-life (h)
Give just the number in h; leave the unit off.

In: Which half-life reading was recorded for the compound `Cc1nc(N2CCC(N3CCOCC3)CC2)nc2ccc(NC(=O)COc3ccc(OC(F)(F)F)cc3)cc12` ?
Out: 3

====

assayExplanation: Solubility of the compound in 5% DMSO and 95% PBS after overnight incubation using plate shaker
Type: physicochemical
appliedConditions: 5% DMSO and 95% PBS; read-out: solubility
# if value of solubility reaches 100 µM, tag true (1); if it stays below, tag false (0)

For orientation, consider the following solved cases.
molecule	discreteLabel
Cc1nc(N2CCN(C(=O)C3CC3)CC2)nc2ccc(NC(=O)COc3ccc(OC(F)(F)F)cc3)cc12	false (0)
Cc1nc(N2CCN(C(=O)C3CCC3)CC2)nc2ccc(NC(=O)COc3ccc(OC(F)(F)F)cc3)cc12	false (0)

In: Entry `Cc1nc(N2CCN(C3CCOCC3)CC2)nc2ccc(NC(=O)COc3ccc(Cl)cc3)cc12` : is its solubility no less than 100 µM?
Out: false (0)

In: Another molecule: `Cc1nc(N2CCC(NC(=O)C(C)C)CC2)nc2ccc(NC(=O)COc3ccc(Cl)cc3)cc12`
Out: true (1)

In: Another molecule: `Cc1nc(N2CCC(C(=O)NC(C)C)CC2)nc2ccc(NC(=O)COc3ccc(Cl)cc3)cc12`
Out: true (1)

In: Another molecule: Cc1nc(N2CCC(N3CCCC3)CC2)nc2ccc(NC(=O)C(C)Oc3ccc(Cl)cc3)cc12 (configuration not stated)
Out: true (1)

In: Another molecule: `Cc1nc(N2CCC(N3CCOCC3)CC2)nc2ccc(NC(=O)COc3ccc(OC(F)(F)F)cc3)cc12`
Out: false (0)

====

testTarget: UniProt:Q99705
assayExplanation: biochemical
Type: cell-based, CHO-K1
Description: Displacement of [125I]MCH from human recombinant MCHR1 expressed in CHO-K1 cell membranes after 2 hrs by SPA binding assay
observationType: IC50 (nM)
Give just the number in nM; leave the unit off.

See these solved cases before continuing.
smilesRecord	testTarget	unitOfMeasure	IC50
Cc1nc(N2CCN(C(=O)C3CC3)CC2)nc2ccc(NC(=O)COc3ccc(OC(F)(F)F)cc3)cc12	UniProt:Q99705	nM	49
Cc1nc(N2CCN(C(=O)C3CCCC3)CC2)nc2ccc(NC(=O)COc3ccc(Cl)cc3)cc12	UniProt:Q99705	nM	305
Cc1nc(N2CCC(NC(=O)C(C)C)CC2)nc2ccc(NC(=O)COc3ccc(Cl)cc3)cc12	UniProt:Q99705	nM	15

In: Lookup: IC50 / UniProt:Q99705 / `CCN1CCN(c2nc(C)c3cc(NC(=O)COc4ccc(Cl)cc4)ccc3n2)CC1`
Out: 690

====

Voltage-gated inwardly rectifying potassium channel KCNH2 (Homo sapiens) measurements of pIC50, listed per entry.
Sequence (Q12809 whole entry): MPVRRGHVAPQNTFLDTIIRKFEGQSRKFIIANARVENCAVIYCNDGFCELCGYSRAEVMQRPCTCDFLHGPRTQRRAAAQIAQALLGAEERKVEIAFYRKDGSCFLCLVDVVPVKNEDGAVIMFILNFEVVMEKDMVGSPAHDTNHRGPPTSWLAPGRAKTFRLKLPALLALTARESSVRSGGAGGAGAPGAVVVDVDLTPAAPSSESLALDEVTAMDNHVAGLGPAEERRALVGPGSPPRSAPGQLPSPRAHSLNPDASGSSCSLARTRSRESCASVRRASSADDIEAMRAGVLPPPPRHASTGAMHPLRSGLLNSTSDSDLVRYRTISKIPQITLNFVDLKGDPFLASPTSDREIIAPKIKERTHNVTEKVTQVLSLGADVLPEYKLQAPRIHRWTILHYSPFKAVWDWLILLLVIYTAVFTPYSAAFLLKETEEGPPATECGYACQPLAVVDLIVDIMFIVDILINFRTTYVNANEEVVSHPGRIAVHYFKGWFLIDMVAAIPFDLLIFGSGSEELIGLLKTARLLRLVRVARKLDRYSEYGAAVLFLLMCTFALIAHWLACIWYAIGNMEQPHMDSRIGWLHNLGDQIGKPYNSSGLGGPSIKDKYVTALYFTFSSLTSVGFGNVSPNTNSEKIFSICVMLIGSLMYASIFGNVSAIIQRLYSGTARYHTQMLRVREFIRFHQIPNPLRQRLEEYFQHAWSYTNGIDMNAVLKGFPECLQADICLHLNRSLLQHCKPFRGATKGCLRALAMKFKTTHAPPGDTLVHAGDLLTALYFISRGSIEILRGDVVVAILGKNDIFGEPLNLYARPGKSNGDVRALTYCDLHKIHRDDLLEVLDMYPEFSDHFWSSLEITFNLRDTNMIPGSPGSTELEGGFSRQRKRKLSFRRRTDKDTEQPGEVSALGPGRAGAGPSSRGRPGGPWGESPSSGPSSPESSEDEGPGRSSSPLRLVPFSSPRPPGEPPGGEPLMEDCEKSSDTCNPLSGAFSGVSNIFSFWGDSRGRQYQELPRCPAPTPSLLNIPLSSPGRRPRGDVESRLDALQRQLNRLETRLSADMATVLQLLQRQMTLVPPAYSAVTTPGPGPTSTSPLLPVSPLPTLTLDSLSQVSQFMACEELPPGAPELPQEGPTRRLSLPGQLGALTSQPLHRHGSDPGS
Conceptually, pIC50 converts a concentration in mol/L into minus its log10.

smilesRecord	observationType	recordedMeasurement
Cc1nc(N2CCC(N3CCCC3)CC2)nc2ccc(NC(=O)COc3ccc(Cl)cc3)cc12	pIC50	6.35

Okay, now this compound:
In: Lookup: pIC50 / Voltage-gated inwardly rectifying potassium channel KCNH2 (Homo sapiens) / `Cc1nc(N2CCC(N3CCCC3=O)CC2)nc2ccc(NC(=O)COc3ccc(OC(F)(F)F)cc3)cc12`
Out: 5.43

====

testTarget: Melanin-concentrating hormone receptor 1 (Homo sapiens, UniProt Q99705)
Sequence (Q99705 whole entry): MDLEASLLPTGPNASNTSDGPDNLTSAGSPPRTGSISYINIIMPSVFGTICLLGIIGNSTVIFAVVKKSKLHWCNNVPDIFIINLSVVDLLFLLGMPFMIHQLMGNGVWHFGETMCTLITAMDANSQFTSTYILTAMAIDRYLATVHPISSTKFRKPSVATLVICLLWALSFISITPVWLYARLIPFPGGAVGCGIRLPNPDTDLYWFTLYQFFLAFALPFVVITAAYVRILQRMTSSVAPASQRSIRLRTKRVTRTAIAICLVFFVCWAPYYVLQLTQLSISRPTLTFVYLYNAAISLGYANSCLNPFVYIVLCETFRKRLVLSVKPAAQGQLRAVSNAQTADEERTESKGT
assayExplanation: biochemical
Format: cell-based, CHO-K1
pIC50: −log10 of the molar value.
# if value of pIC50 reaches 7, tag satisfied; if it stays below, tag not satisfied

In: Entry `Cc1nc(N2CCC(C(=O)NC3CC3)CC2)nc2ccc(NC(=O)COc3ccc(OC(F)(F)F)cc3)cc12` : is its pIC50 no less than 7?
Out: satisfied

In: Another molecule: `Cc1nc(N2CCC(N)CC2)nc2ccc(NC(=O)COc3ccc(OC(F)(F)F)cc3)cc12`
Out: satisfied

In: Another molecule: `Cc1nc(N2CCN(C(=O)C3CCC3)CC2)nc2ccc(NC(=O)COc3ccc(Cl)cc3)cc12`
Out: not satisfied

====

Reported IC50 is given for each of the following compounds.
testTarget: UniProtKB Q99705
assayExplanation: Antagonist activity at human MCHR1 expressed in CHO-K1 cells assessed as inhibition of MCH peptide mediated response measuring [3H]inositol phosphate production by IP3-SPA-YSI assay
Type: functional, cell-based
Give just the number in nM; leave the unit off.

smilesRecord	IC50 / nM
Cc1nc(N2CCC(O)(c3cccc(F)c3)CC2)nc2ccc(NC(=O)COc3ccc(OC(F)(F)F)cc3)cc12	100
Cc1nc(N2CCN(C(=O)CC(C)C)CC2)nc2ccc(NC(=O)COc3ccc(Cl)cc3)cc12	160
Cc1nc(N2CCN(C3CCCC3)CC2)nc2ccc(NC(=O)COc3ccc(Cl)cc3)cc12	150
Cc1nc(N2CCN(C(=O)C3CCCC3)CC2)nc2ccc(NC(=O)COc3ccc(Cl)cc3)cc12	350

In: Lookup: IC50 / UniProtKB Q99705 / `Cc1nc(N2CCC(O)(C3CC3)CC2)nc2ccc(NC(=O)COc3ccc(OC(F)(F)F)cc3)cc12`
Out: 33

====

testTarget: Melanin-concentrating hormone receptor 1 (Homo sapiens, UniProt Q99705)
assayExplanation: Antagonist activity at human MCHR1 expressed in CHO-K1 cells assessed as inhibition of MCH peptide mediated response measuring [3H]inositol phosphate production by IP3-SPA-YSI assay
Format: functional, cell-based
Reported pIC50 is given for each of the following molecules.
Conceptually, pIC50 converts a concentration in mol/L into minus its log10.

See these solved cases before continuing.
smilesRecord	pIC50
Cc1nc(N2CCN(C(=O)C3CCCCC3)CC2)nc2ccc(NC(=O)COc3ccc(Cl)cc3)cc12	5.99
Cc1nc(N2CCC(N)CC2)nc2ccc(NC(=O)COc3ccc(Cl)cc3)cc12	6.21
Cc1nc(N2CCC(C(N)=O)CC2)nc2ccc(NC(=O)COc3ccc(OC(F)(F)F)cc3)cc12	7.49
Cc1nc(N2CCN(C)CC2)nc2ccc(NC(=O)COc3ccc(Cl)cc3)cc12	5.42

Okay, now this molecule:
In: Which pIC50 reading was recorded for the molecule `Cc1nc(N2CCC(C(=O)NC3CC3)CC2)nc2ccc(NC(=O)COc3ccc(OC(F)(F)F)cc3)cc12` ?
Out: 8.52

====

assayExplanation: AUC (0 to 8 hrs) in Swiss albino mouse plasma at 30 mg/kg, po
Assay type: ADME, organism-based
Parameters: time < 8 hr, dose 30 mg/kg, route oral
observationType: AUC(0-t) at 8 h (µM·h)
Give just the number in µM·h; leave the unit off.

In: Which AUC(0-t) at 8 h reading was recorded for the compound `Cc1nc(N2CCC(N3CCOCC3)CC2)nc2ccc(NC(=O)COc3ccc(OC(F)(F)F)cc3)cc12` ?
Out: 1.02

====

testTarget: Melanin-concentrating hormone receptor 1 (Homo sapiens, UniProt Q99705)
assayExplanation: Antagonist activity at human MCHR1 expressed in CHO-K1 cells assessed as inhibition of MCH peptide mediated response measuring [3H]inositol phosphate production by IP3-SPA-YSI assay
Format: functional, cell-based
IC50 under 60 nM gets 1 (yes), anything at or over 60 nM gets 0 (no).

smilesRecord	testTarget	discreteLabel
Cc1nc(N2CCN(C(=O)C3CC3)CC2)nc2ccc(NC(=O)COc3ccc(OC(F)(F)F)cc3)cc12	Melanin-concentrating hormone receptor 1 (Homo sapiens, UniProt Q99705)	1 (yes)
Cc1nc(N2CCC(O)CC2)nc2ccc(NC(=O)C(C)(C)Oc3ccc(Cl)cc3)cc12	Melanin-concentrating hormone receptor 1 (Homo sapiens, UniProt Q99705)	0 (no)
Cc1nc(N2CCN(C(=O)C3CCC3)CC2)nc2ccc(NC(=O)COc3ccc(Cl)cc3)cc12	Melanin-concentrating hormone receptor 1 (Homo sapiens, UniProt Q99705)	0 (no)
Cc1nc(N2CCC(N3CCCC3)CC2)nc2ccc(NC(=O)COc3ccc(OC(F)(F)F)cc3)cc12	Melanin-concentrating hormone receptor 1 (Homo sapiens, UniProt Q99705)	0 (no)

In: Please let me know if `Cc1nc(N2CCC(O)(c3ccc(F)cc3)CC2)nc2ccc(NC(=O)COc3ccc(OC(F)(F)F)cc3)cc12` shows IC50 below 60 nM.
Out: 1 (yes)

In: Another molecule: `Cc1nc(N2CCN(C(=O)c3ccccc3)CC2)nc2ccc(NC(=O)COc3ccc(Cl)cc3)cc12`
Out: 0 (no)

In: Another molecule: `Cc1nc(N2CCC(C(=O)NC(C)C)CC2)nc2ccc(NC(=O)COc3ccc(OC(F)(F)F)cc3)cc12`
Out: 1 (yes)
